- System: calf thymus DNA (ctDNA)
- test: Fluorescent intercalator displacement (FID) assay, EtBr-saturated ctDNA
- Type: binding
- experimental_parameters: buffer pH 7.0
Each entry below carries its recorded Kf (binding constant for fluorescence).
In your answer, state the number alone without any accompanying words.

Consider the following illustrative entries.
substance	tested_target	measured_value
[Pt(Bequ)(RRDACH)]+ [Complex 2b]	calf thymus DNA (ctDNA)	3.78
[Pt(Bequ)( SSDACH)]+ [Complex 2a]	calf thymus DNA (ctDNA)	3.25
[Pt(Pepy)(SSDACH)]+ [Complex 1a]	calf thymus DNA (ctDNA)	4.35
[Pt(Pepy)(RRDACH)]+ [Complex 1b]	calf thymus DNA (ctDNA)	4.23
[Pt(DiBequ)(SSDACH)]+ [Complex 3a]	calf thymus DNA (ctDNA)	3.18

Next substance, please.
Query :: Need Kf (binding constant for fluorescence) of [Pt(DiBequ)(RRDACH)]+ [Complex 3b] , thanks.
Result :: 4.22

----------
- System: Du145 Prostate
- test: MTT cytotoxicity Du145
- Format: cell-based
- experimental_parameters: read-out: GI50 Concentration That Inhibits Cell Growth by 50%, 72 h
- Experimental: Cytotoxicity assay studies were performed at Calvary Mater Newcastle Hospital, Waratah, NSW, Australia. In vitro studies were performed according to described methods. […] Cytotoxicity was determined by plating cells in duplicate in 100 μL medium at a density of 2500–4000 cells per well in 96-well plates. […] After 72 h of exposure, growth inhibitory effects were evaluated by MTT (3-[4,5-dimethylthiazol-2-yl]-2,5-diphenyltetrazolium bromide) assay, and absorbance was read at 540 nm. […]
measurement_type: GI50 (µM)
Give the value in µM but do not write µM after it.

Consider the following illustrative entries.
substance	unit_symbol	GI50
[Pt(Pepy)(RRDACH)]+ [Complex 1b]	µM	41
[Pt(Bequ)(RRDACH)]+ [Complex 2b]	µM	20

Query :: Need GI50 of [Pt(Bequ)( SSDACH)]+ [Complex 2a] , thanks.
Result :: 26

Query :: Need GI50 of [Pt(Pepy)(SSDACH)]+ [Complex 1a] , thanks.
Result :: 9

Query :: Need GI50 of [Pt(DiBequ)(SSDACH)]+ [Complex 3a] , thanks.
Result :: 23

Query :: Need GI50 of [Pt(DiBequ)(RRDACH)]+ [Complex 3b] , thanks.
Result :: 16

----------
- Test system: MCF-7 Breast
- test: MTT cytotoxicity MCF-7
- Assay type: cell-based
- experimental_parameters: read-out: GI50 Concentration That Inhibits Cell Growth by 50%; MCF-7 Breast, 72 h, MTT
measurement_type: GI50
Respond with a number, then the unit of measure.

Consider the following illustrative entries.
substance	tested_target	measured_value
[Pt(Bequ)( SSDACH)]+ [Complex 2a]	MCF-7 Breast	5.4 µM
[Pt(DiBequ)(SSDACH)]+ [Complex 3a]	MCF-7 Breast	15 µM
[Pt(Pepy)(SSDACH)]+ [Complex 1a]	MCF-7 Breast	8.4 µM

Query :: Need GI50 of [Pt(Bequ)(RRDACH)]+ [Complex 2b] , thanks.
Result :: 7.7 µM

Query :: Need GI50 of [Pt(DiBequ)(RRDACH)]+ [Complex 3b] , thanks.
Result :: 4.2 µM

Query :: Need GI50 of [Pt(Pepy)(RRDACH)]+ [Complex 1b] , thanks.
Result :: 13 µM

----------
Each entry below carries its recorded Lipophilicity × 10^−2 (log Kw).
- test: Lipophilicity by RP-HPLC (log Kw)
- Assay type: physicochemical
- experimental_parameters: isocratic 70 to 90% solvent B

Consider the following illustrative entries.
substance	Lipophilicity × 10^−2 (log Kw)
[Pt(Bequ)( SSDACH)]+ [Complex 2a]	2.06 ± 0.097 × 10^−2
[Pt(Bequ)(RRDACH)]+ [Complex 2b]	3.97 ± 0.053 × 10^−2
[Pt(DiBequ)(RRDACH)]+ [Complex 3b]	0.4 ± 0.029 × 10^−2
[Pt(DiBequ)(SSDACH)]+ [Complex 3a]	0.77 ± 0.032 × 10^−2

Query :: Need Lipophilicity × 10^−2 (log Kw) of [Pt(Pepy)(RRDACH)]+ [Complex 1b] , thanks.
Result :: 1.52 ± 0.063 × 10^−2

----------
- System: HT29 Colon
- test: MTT cytotoxicity HT29
- Assay type: cell-based
- experimental_parameters: read-out: GI50 Concentration That Inhibits Cell Growth by 50%, 72 h
Each entry below carries its recorded GI50.
Give the value in µM but do not write µM after it.

Consider the following illustrative entries.
substance	unit_symbol	GI50
[Pt(Bequ)(RRDACH)]+ [Complex 2b]	µM	30
[Pt(Pepy)(RRDACH)]+ [Complex 1b]	µM	41
[Pt(DiBequ)(SSDACH)]+ [Complex 3a]	µM	16
[Pt(Pepy)(SSDACH)]+ [Complex 1a]	µM	13
[Pt(Bequ)( SSDACH)]+ [Complex 2a]	µM	16

Next substance, please.
Query :: Need GI50 of [Pt(DiBequ)(RRDACH)]+ [Complex 3b] , thanks.
Result :: 16

----------
- System: A431 Skin
- test: MTT cytotoxicity A431
- Type: cell-based
- experimental_parameters: read-out: GI50 Concentration That Inhibits Cell Growth by 50%, 72 h
Each entry below carries its recorded GI50.
Give the value in µM but do not write µM after it.

substance	measurement_type	measured_value
[Pt(DiBequ)(RRDACH)]+ [Complex 3b]	GI50	3.9
[Pt(DiBequ)(SSDACH)]+ [Complex 3a]	GI50	14
[Pt(Pepy)(RRDACH)]+ [Complex 1b]	GI50	29
[Pt(Pepy)(SSDACH)]+ [Complex 1a]	GI50	4.2
[Pt(Bequ)(RRDACH)]+ [Complex 2b]	GI50	3.4

Next substance, please.
Query :: Need GI50 of [Pt(Bequ)( SSDACH)]+ [Complex 2a] , thanks.
Result :: 12

----------
- System: calf thymus DNA (ctDNA)
- test: Fluorescent intercalator displacement (FID) assay, EtBr-saturated ctDNA
- Type: binding
- experimental_parameters: buffer pH 7.0
measurement_type: Point of Experimental Stoichiometry of Binding
In your answer, state the number alone without any accompanying words.

Query :: Need Point of Experimental Stoichiometry of Binding of [Pt(Bequ)(RRDACH)]+ [Complex 2b] , thanks.
Result :: 2.47

Query :: Need Point of Experimental Stoichiometry of Binding of [Pt(DiBequ)(SSDACH)]+ [Complex 3a] , thanks.
Result :: 2.38

----------
- Test system: calf thymus DNA (ctDNA)
- test: Fluorescent intercalator displacement (FID) assay, EtBr-saturated ctDNA
- Format: binding
- experimental_parameters: buffer pH 7.0
measurement_type: Point of Experimental Stoichiometry of Binding
In your answer, state the number alone without any accompanying words.

substance	tested_target	measured_value
[Pt(Bequ)( SSDACH)]+ [Complex 2a]	calf thymus DNA (ctDNA)	2.52
[Pt(Pepy)(RRDACH)]+ [Complex 1b]	calf thymus DNA (ctDNA)	2.65
[Pt(DiBequ)(RRDACH)]+ [Complex 3b]	calf thymus DNA (ctDNA)	2.62

Next substance, please.
Query :: Can you look up Point of Experimental Stoichiometry of Binding on calf thymus DNA (ctDNA) for [Pt(Pepy)(SSDACH)]+ [Complex 1a] ?
Result :: 2.84
